# ASSAY_TARGET: PDE9 (Homo sapiens)
# Sequence (O76083 whole entry): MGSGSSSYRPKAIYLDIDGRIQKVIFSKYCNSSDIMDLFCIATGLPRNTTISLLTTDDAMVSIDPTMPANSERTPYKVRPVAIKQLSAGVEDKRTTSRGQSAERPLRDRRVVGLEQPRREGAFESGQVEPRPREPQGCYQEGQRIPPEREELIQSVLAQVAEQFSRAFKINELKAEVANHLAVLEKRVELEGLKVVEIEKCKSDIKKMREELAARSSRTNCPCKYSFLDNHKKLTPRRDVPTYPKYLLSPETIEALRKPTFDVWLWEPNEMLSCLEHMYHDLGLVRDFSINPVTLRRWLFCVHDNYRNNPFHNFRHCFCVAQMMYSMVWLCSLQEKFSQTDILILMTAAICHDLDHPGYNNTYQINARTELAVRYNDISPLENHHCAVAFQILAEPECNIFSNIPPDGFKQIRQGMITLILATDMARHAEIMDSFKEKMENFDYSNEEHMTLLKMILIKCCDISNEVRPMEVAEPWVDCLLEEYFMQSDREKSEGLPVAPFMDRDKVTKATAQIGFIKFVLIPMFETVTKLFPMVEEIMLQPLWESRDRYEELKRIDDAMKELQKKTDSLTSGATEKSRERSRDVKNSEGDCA
# EXPERIMENT_DESCRIPTION: PDE9 inhibition assay
# Assay type: biochemical
# SETUP_CONDITIONS: 10 μM of inhibitor; 10 µM
Each entry below lists one item and its recorded PDE9 Inhibition at 10 μM (%) value.
RECORDED_ENDPOINT: PDE9 Inhibition at 10 μM (%)

{"COMPOUND": "CC1OCCC1c1ncc2c(=O)n(C)c(Cc3ccc(-c4cccc(F)n4)cc3)cn12 (single isomer, unassigned; isomer 4) [Example 32]", "ASSAY_TARGET": "PDE9 (Homo sapiens)", "RESULT": 5}
{"COMPOUND": "CC1OCCC1c1ncc2c(=O)n(C)c(Cc3ccc(-c4cccc(F)n4)cc3)cn12 (single isomer, unassigned; isomer 3) [Example 31]", "ASSAY_TARGET": "PDE9 (Homo sapiens)", "RESULT": 10}
{"COMPOUND": "Cn1c(Cc2ccc(-c3cccc(F)n3)cc2)cn2c(C3CCOC3)ncc2c1=O (single isomer, unassigned; isomer 2)", "ASSAY_TARGET": "PDE9 (Homo sapiens)", "RESULT": 6}
{"COMPOUND": "CC1OCCC1c1ncc2c(=O)n(C)c(Cc3ccc(-c4cccc(F)n4)cc3)cn12 (single isomer, unassigned; isomer 1) [Example 29]", "ASSAY_TARGET": "PDE9 (Homo sapiens)", "RESULT": 4}
{"COMPOUND": "CC1OCCC1c1ncc2c(=O)n(C)c(Cc3ccc(-c4cccc(F)n4)cc3)cn12 (single isomer, unassigned; isomer 2) [Example 30]", "ASSAY_TARGET": "PDE9 (Homo sapiens)", "RESULT": "−2"}
